# Tested on: SW-620
# EXPERIMENT_DESCRIPTION: NCI tumour cell line growth inhibition, 48 h
Active and inactive are the calls of the source. Cut-off read from the data, not from the text of the source: active = GI50 up to about 1.1 µM and inactive = higher. Positions of bridges follow the written chain, without caps; N, C: chain ends. Residues, ends and D or L forms follow the SMILES beside them.
Just give me one of these, please: active, inactive

Worked examples follow.
>>> label("c1ccc(-c2cc(C3CO3)c3ccccc3n2)cc1 (stereo not given)")
"inactive"
>>> label("COC[C@@H](/N=C/N1CCc2cc(OC)c(OC)cc2[C@@H]1C)C(C)(C)C")
"inactive"
>>> label("COCOCc1cc(OCc2ccccc2)c(OC)cc1Br")
"inactive"
>>> label("O=c1[nH]c2c(c3ccccc13)CCc1ccccc1-2")
"inactive"
>>> label("c1ccc2cc3n[se]nc3cc2c1")
"inactive"

Could you check what this test reported for `Cc1ccc(/N=N\c2c(O)c(S(=O)(=O)O)cc3cc(S(=O)(=O)O)ccc23)c(C)c1` ? inactive

Tell me the assay call for `O=C(c1ccc(/N=C/c2ccccc2O)cc1)c1ccc(/N=C/c2ccccc2O)cc1` please. inactive

What did this assay record as the result for CCC(C)C1NC(=O)C(CC(C)C)NC(=O)C(C(C)C)NC(=O)C2CSSCC(NC1=O)C(=O)N2 (stereo not given) (cyclo(CCVLI); disulfide 1-2; configuration not given here) ? active

What is the recorded call for this compound in the test? CC1CCc2c(c(CC3CC(=O)NC(=O)C3)nn2-c2ccccc2)C1 (stereo not given) inactive

// outcome(item) with item = `CCOC(=O)CCn1cnc(N)n1` inactive
